# Test system: E. coli TESEC Alr+ wild-type control
# measurementProtocol: growth (OD600 after 10 h); higher = more growth (less inhibition)
# runParameters: compound 0.1 mM; raw OD600 reference: median of DMSO wells 0.49, cell-free background 0.052
Where a name gives a salt, the structure may show the parent alone.
The threshold is inclusive: growth of exactly 0.4 counts as rule met; values below receive rule not met.

Illustrative cases are given below, each with its answer.
{"compound": "CCOC(=O)OC(C)OC(=O)[C@@H]1N2C(=O)[C@@H](NC(=O)[C@H](N)c3ccccc3)[C@H]2SC1(C)C (stereo partly specified) [Bacampicillin hydrochloride]", "measuredTarget": "E. coli TESEC Alr+ wild-type control", "categoryLabel": "rule met"}
{"compound": "CN1CCN(C(c2ccccc2)c2ccccc2)CC1 [Cyclizine hydrochloride]", "measuredTarget": "E. coli TESEC Alr+ wild-type control", "categoryLabel": "rule met"}
{"compound": "O=c1[nH]c(=O)n([C@H]2C[C@H](O)[C@@H](CO)O2)cc1I", "measuredTarget": "E. coli TESEC Alr+ wild-type control", "categoryLabel": "rule met"}

In: // inclusive: growth at least 0.4? input: CC(=O)Oc1ccc(C(c2ccc(OC(C)=O)cc2)c2ccccn2)cc1
Out: rule met

In: Threshold query (growth >= 0.4) on O=C(O)CCC(=O)Nc1ccc(S(=O)(=O)Nc2nccs2)cc1
Out: rule met

In: Please tell me: is the compound OCC(O)CN1CCN(c2ccccc2)CC1 (racemic) [Dropropizine (R,S)] at or over 0.4 in terms of growth?
Out: rule met

In: Please indicate if the recorded growth for Nc1ccccc1S(N)(=O)=O [2-Aminobenzenesulfonamide] meets or exceeds 0.4.
Out: rule met

In: Would you say CC(=O)NC[C@H]1CN(c2ccc(N3CCOCC3)c(F)c2)C(=O)O1 shows growth at minimum 0.4?
Out: rule not met

In: # bool: growth of CC1CC(OC(=O)C(O)c2ccccc2)CC(C)(C)N1C (stereo unspecified) [Eucatropine hydrochloride] >= 0.4
Out: rule met

In: Given CNC[C@H](O)[C@@H](O)[C@H](O)[C@H](O)CO , state whether its growth is at least 0.4.
Out: rule met

In: Determine whether this compound has growth no lower than 0.4: CC[C@H]1OC(=O)C[C@@H](O)[C@H](C)[C@@H](O[C@@H]2O[C@H](C)[C@@H](O[C@H]3C[C@@](C)(O)[C@@H](O)[C@H](C)O3)[C@H](N(C)C)[C@H]2O)[C@@H](CC=O)C[C@@H](C)C(=O)/C=C/C(C)=C/[C@@H]1CO[C@@H]1O[C@H](C)[C@@H](O)[C@@H](OC)[C@H]1OC
Out: rule not met

In: Can CC(=O)[C@H]1CC[C@H]2[C@@H]3CCC4=CC(=O)CC[C@]4(C)[C@H]3CC[C@]12C be said to have growth at or above 0.4?
Out: rule not met

In: Is reported growth greater than or equal to 0.4 here: Nc1nc(F)nc2c1ncn2[C@@H]1O[C@H](CO)[C@@H](O)[C@@H]1O
Out: rule met

In: Decide: is the reported value of growth for CCOC(=O)C1=C(C)NC(C)=C(C(=O)OC)C1c1cccc(Cl)c1Cl (stereo unspecified) equal to or greater than 0.4?
Out: rule not met

In: Confirm if growth reported for the compound CCCCNc1cc(C(=O)O)cc(S(N)(=O)=O)c1Oc1ccccc1 [Bumetanide] is 0.4 or above.
Out: rule met

In: Answer whether growth of CN(C)CCn1nnnc1SCC1=C(C(=O)O)N2C(=O)[C@@H](NC(=O)Cc3csc(N)n3)[C@H]2SC1 [Cefotiam hydrochloride] is greater than or equal to 0.4.
Out: rule not met

====

# Test system: E. coli TESEC Mtb Alr
# measurementProtocol: growth (OD600 after 10 h); higher = more growth (less inhibition)
# runParameters: arabinose 100 nM; compound 0.1 mM; raw OD600 reference: median of DMSO wells 0.413, cell-free background 0.052
Structures can show the parent of a compound that is named as a salt.
outcomeMeasure: growth
Could you respond with only the numeric value?

Here's what some known entries look like.
{"compound": "CC(=O)NCCCS(=O)(=O)O [Acamprosate calcium]", "growth": 0.409}
{"compound": "O=C(O)[C@H]1/C(=C/CO)O[C@@H]2CC(=O)N21 [Clavulanate potassium salt]", "growth": 0.0839}
{"compound": "COc1cccc(N(C)C(=S)Oc2ccc3c(c2)CCCC3)n1 [Liranaftate]", "growth": 0.407}
{"compound": "COc1cc(N)c(Cl)cc1C(=O)NC1CCN(Cc2ccccc2)CC1 [Clebopride maleate]", "growth": 0.397}

Continue with the next compound.
The measured growth that NC(CO)C(=O)NNCc1ccc(O)c(O)c1O (stereo not given) [Benserazide hydrochloride] showed for E. coli TESEC Mtb Alr is 0.337

====

# Tested on: E. coli TESEC Mtb Asd
# measurementProtocol: growth (OD600 after 10 h); higher = more growth (less inhibition)
# runParameters: arabinose induction (level): High; compound 0.1 mM; raw OD600 reference: median of DMSO wells 0.331, cell-free background 0.041
Structures can show the parent of a compound that is named as a salt.
outcomeMeasure: growth
Please give only the number in your answer, with no unit.

Looking up C[C@@H]1C[C@H]2[C@@H]3C[C@H](F)C4=CC(=O)C=C[C@]4(C)[C@@]3(Cl)[C@@H](O)C[C@]2(C)[C@H]1C(=O)COC(=O)C(C)(C)C [Clocortolone pivalate] , I see its growth listed as 0.198

Sure, the documented growth for OC(CCCN1CCCCC1)(c1ccccc1)c1ccccc1 [Diphenidol hydrochloride] is 0.262

// growth lookup, molecule = CC(C)NC[C@H](O)COc1ccc(CC(N)=O)cc1 [(S)-(-)-Atenolol] , result: 0.287

Field growth (entry C#C[C@]1(O)CC[C@H]2[C@@H]3CCC4=CC(=O)CC[C@@H]4[C@H]3CC[C@@]21C [Norethindrone] ) reads 0.286

====

# System: E. coli TESEC Mtb DapB
# measurementProtocol: growth (OD600 after 10 h); higher = more growth (less inhibition)
# runParameters: arabinose induction (level): Low; compound 0.1 mM; raw OD600 reference: median of DMSO wells 0.227, cell-free background 0.041
Counter-ions that a name gives are not always drawn.
outcomeMeasure: growth
Answer with a number only.

These solved cases illustrate the format of a correct answer.
{"molecule": "OC(CCN1CCCC1)(c1ccccc1)C1CCCCC1 (stereo unspecified) [Procyclidine hydrochloride]", "growth": 0.245}
{"molecule": "Cc1ncc([N+](=O)[O-])n1CC(O)CCl (stereo unspecified)", "growth": 0.218}
{"molecule": "CC1(C)O[C@@H]2C[C@H]3[C@@H]4CCC5=CC(=O)CC[C@]5(C)[C@@]4(F)[C@@H](O)C[C@]3(C)[C@]2(C(=O)CCl)O1 [Halcinonide]", "growth": 0.22}
{"molecule": "CCC1=C(C)CN(C(=O)NCCc2ccc(S(=O)(=O)NC(=O)N[C@H]3CC[C@H](C)CC3)cc2)C1=O [Glimepiride]", "growth": 0.221}
{"molecule": "CN1[C@@H]2CC[C@H]1C[C@@H](OC(=O)c1c[nH]c3ccccc13)C2 [Tropisetron HCl]", "growth": 0.264}
{"molecule": "CNCCC=C1c2ccccc2C=Cc2ccccc21", "growth": 0.21}

Looking up COc1cc2nc(N3CCN(C(=O)c4ccco4)CC3)nc(N)c2cc1OC [Prazosin hydrochloride] , I found its growth recorded as 0.285

Notebook: C[C@]12C=CC(=O)C=C1CC[C@@H]1[C@@H]2C(=O)C[C@@]2(C)[C@H]1CC[C@]2(O)C(=O)CO , growth read as 0.267

Note to self: growth recorded for Nc1nc(=S)c2ncn([C@@H]3O[C@H](CO)[C@@H](O)[C@H]3O)c2[nH]1 was 0.115

Entry NCCc1cc[nH]n1 [Betazole hydrochloride] ; growth = 0.254

So for CC(=O)Oc1ccccc1C(=O)Oc1ccccc1C(=O)O , the logged growth turned out to be 0.209

growth recorded for this molecule, CCC(=O)OCC(=O)[C@@]1(OC(=O)CC)[C@@H](C)C[C@H]2[C@@H]3CCC4=CC(=O)C=C[C@]4(C)[C@@]3(Cl)[C@@H](O)C[C@@]21C [Beclomethasone dipropionate] , is 0.248

====

# Tested on: E. coli TESEC Mtb Alr
# measurementProtocol: growth (OD600 after 10 h); higher = more growth (less inhibition)
# runParameters: arabinose 10000000 nM; compound 0.1 mM; raw OD600 reference: median of DMSO wells […], cell-free background 0.052
Structures can show the parent of a compound that is named as a salt.
Classification field: YES = growth at or over 0.3; NO = growth under 0.3.

{"compound": "COC(c1ccccc1)(c1ccccc1)[C@H](Oc1nc(C)cc(C)n1)C(=O)O", "measuredTarget": "E. coli TESEC Mtb Alr", "categoryLabel": "YES"}
{"compound": "CCCCOc1ccc(OCCCN2CCOCC2)cc1 [Pramoxine hydrochloride]", "measuredTarget": "E. coli TESEC Mtb Alr", "categoryLabel": "YES"}
{"compound": "CC(C)(C)C(=O)OCOC(=O)[C@@H]1N2C(=O)[C@@H](NC(=O)[C@H](N)c3ccccc3)[C@H]2SC1(C)C", "measuredTarget": "E. coli TESEC Mtb Alr", "categoryLabel": "YES"}
{"compound": "C#C[C@]1(O)CC[C@H]2[C@@H]3CCC4=CC(=O)CC[C@@H]4[C@H]3CC[C@@]21C", "measuredTarget": "E. coli TESEC Mtb Alr", "categoryLabel": "NO"}
{"compound": "CO[C@@]1(NC(=O)C2SC(=C(C(N)=O)C(=O)O)S2)C(=O)N2C(C(=O)O)=C(CSc3nnnn3C)CS[C@@H]21 (some centres not stated)", "measuredTarget": "E. coli TESEC Mtb Alr", "categoryLabel": "NO"}

In: # check: growth of Cc1ccc(/C(=C\CN2CCCC2)c2ccccn2)cc1 [Triprolidine hydrochloride] is greater than or equal to 0.3
Out: YES

In: Does growth meet or surpass 0.3 for Cc1ccc(-c2cc(C(F)(F)F)nn2-c2ccc(S(N)(=O)=O)cc2)cc1 ?
Out: NO

In: Would you say CN(C)CCOC(c1ccccc1)c1ccccc1.Cn1c(=O)c2[nH]c(Cl)nc2n(C)c1=O [Dimenhydrinate] shows growth at minimum 0.3?
Out: YES

In: Is it the case that C[N+](C)(C)CCCCCC[N+](C)(C)C [Hexamethonium dibromide dihydrate] has growth reaching or exceeding 0.3?
Out: YES

In: Does CCN(CC)CCOC(=O)C1(c2ccc([N+](=O)[O-])cc2)CCCC1 [Nitrocaramiphen hydrochloride] have a reported growth of at least 0.3?
Out: YES

In: Does the reported growth for OC(Cn1cncn1)(Cn1cncn1)c1ccc(F)cc1F fall at or above the 0.3 mark?
Out: YES

In: Entry NC(N)=Nc1nc(CSCC/C(N)=N/S(N)(=O)=O)cs1 : is its growth no less than 0.3?
Out: YES

In: Is the recorded value of growth equal to or greater than 0.3 for this compound? NC(=O)c1ncn([C@@H]2O[C@H](CO)[C@@H](O)[C@H]2O)n1
Out: NO

In: Confirm if growth reported for the compound CC(NCCC(c1ccccc1)c1ccccc1)c1ccccc1 (configuration not stated) [Fendiline hydrochloride] is 0.3 or above.
Out: NO

In: Reported growth at or above 0.3? Cc1ccnc(NS(=O)(=O)c2ccc(N)cc2)n1
Out: YES
